Biological target: rat olfactory CNG (OLF) channel (Rattus norvegicus, UniProt Q00195, W332Y)
Sequence (Q00195 whole entry W332Y): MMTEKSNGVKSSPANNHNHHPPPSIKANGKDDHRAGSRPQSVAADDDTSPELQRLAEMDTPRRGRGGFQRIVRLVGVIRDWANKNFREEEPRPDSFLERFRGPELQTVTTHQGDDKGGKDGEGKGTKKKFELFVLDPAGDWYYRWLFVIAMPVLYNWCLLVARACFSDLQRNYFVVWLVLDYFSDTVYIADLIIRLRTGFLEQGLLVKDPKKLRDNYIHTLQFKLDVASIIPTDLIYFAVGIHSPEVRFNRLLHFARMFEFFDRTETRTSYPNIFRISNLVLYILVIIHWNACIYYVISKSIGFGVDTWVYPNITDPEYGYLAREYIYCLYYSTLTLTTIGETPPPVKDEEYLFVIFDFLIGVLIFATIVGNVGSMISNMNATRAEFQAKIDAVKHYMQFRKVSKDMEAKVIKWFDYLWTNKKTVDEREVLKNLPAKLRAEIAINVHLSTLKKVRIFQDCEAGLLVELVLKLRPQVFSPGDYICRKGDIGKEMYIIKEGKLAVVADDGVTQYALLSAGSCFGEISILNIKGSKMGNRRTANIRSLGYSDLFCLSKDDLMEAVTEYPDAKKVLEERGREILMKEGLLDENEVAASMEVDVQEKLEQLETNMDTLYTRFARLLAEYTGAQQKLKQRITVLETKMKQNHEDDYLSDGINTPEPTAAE
Assay: inside-out patch recording, cGMP dose-response
result.type: pEC50
One number for each entry, as −log10 of the molar value.

Q: // returns reported pEC50 for input Nc1nc2c(ncn2[C@@H]2O[C@@H]3COP(=O)(O)O[C@H]3[C@H]2O)c(=O)[nH]1 [cGMP]
Ans: 4.75
